Listing of recorded log10 of IC50 by entry.
- System: PHF (paired helical filaments) isolated from the brain of an Alzheimer's disease patient (Homo sapiens, UniProt P10636)
- Sequence (P10636 623-708 limits assumed): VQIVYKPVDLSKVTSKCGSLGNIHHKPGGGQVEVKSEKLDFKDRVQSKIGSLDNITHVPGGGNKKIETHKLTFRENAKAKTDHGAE
- Procedure Details: Competitive binding assay: displacement of primulin fluorescence from PHFs
- Particulars: concentration that reduces the signal of 1 μM primulin to 50% of control; relative affinity; read-out: P50
All values: base-10 log of IC50 in nM.

Example entries and their recorded answers appear below.
cpd_smiles=COc1ccc2nc(-c3ccc(NC(=O)c4ccc(N)cc4)cc3)sc2c1 test_value=2.57
cpd_smiles=Nc1ccc(C(=O)Nc2ccc(-c3nc4ccc(O)cc4s3)cc2)cc1 test_value=2.65
cpd_smiles=Oc1ccc(/N=N/c2ccc(-c3nc4cc(O)ccc4s3)cc2)c(C(F)(F)F)c1 test_value=1.95
cpd_smiles=Cc1ccc2nc(-c3ccc(NC(=O)c4ccc(N)cc4)cc3)sc2c1 test_value=2.72
cpd_smiles=Nc1ccc(C(=O)Nc2ccc(-c3nc4ccc(O)cc4s3)cc2)cc1C(F)(F)F test_value=2.53

# log10 of IC50 of COc1ccc2nc(-c3ccc(NC(=O)c4ccc(O)cc4)cc3)sc2c1 = 2.63

For record Cc1ccc2nc(-c3ccc(/N=N/c4cc(C(F)(F)F)ccc4O)cc3)sc2c1 the listed log10 of IC50 is 2.66

So for Cc1ccc2nc(-c3ccc(NC(=O)c4ccc([N+](=O)[O-])c(C(F)(F)F)c4)cc3)cn2c1 , the logged log10 of IC50 turned out to be 2.53

The reported value for Nc1ccccc1C(=O)Nc1ccc(-c2nc3ccc(O)cc3s2)cc1 in terms of log10 of IC50 is 2.95

Value of measured log10 of IC50 for the entry Oc1ccc(/N=N/c2ccc(-c3nc4ccc(O)cc4s3)cc2O)c(OC(F)(F)F)c1 : 1.48

====

Entries and their pIC50
- System: PHF (paired helical filaments) isolated from the brain of an Alzheimer's disease patient (Homo sapiens)
- Procedure Details: Competitive binding assay: displacement of primulin fluorescence from PHFs
- Particulars: concentration that reduces the signal of 1 μM primulin to 50% of control; relative affinity; read-out: P50
# reply with the number alone; pIC50 is -log10 of concentration in mol/L

Here's what some known entries look like.
molecule=COc1ccc2nc(-c3ccc(NC(=O)c4ccc(F)nc4)cc3)sc2c1 test_value=6.05
molecule=Cc1ccc2nc(-c3ccc(NC(=O)c4ccc(NO)c(C(F)(F)F)c4)cc3)cn2c1 test_value=6.74
molecule=COc1ccc2nc(-c3ccc(NC(=O)c4ccc(O)c([N+](=O)[O-])c4)cc3)sc2c1 test_value=6.51

According to the records, this molecule COc1ccc2nc(-c3ccc(NC(=O)c4ccc([N+](=O)[O-])c(C(F)(F)F)c4)cc3)sc2c1 displays pIC50 of 6.77

Item: COc1ccc2nc(-c3ccc(/C=C/c4ccc(O)c([N+](=O)[O-])c4)cc3)sc2c1 | pIC50: 7.52

Looking up Oc1ccc(/N=N/c2ccc(-c3nc4ccc(O)cc4s3)c(O)c2)c(OCCCC(F)(F)F)c1 , I see its pIC50 listed as 6.85

// Cc1ccc2nc(-c3ccc(/N=N/c4ccc(N(C)C)cc4)cc3)cn2c1 : pIC50 value = 7.52

// recorded pIC50 for COc1ccc2nc(-c3ccc(NC(=O)c4ccc(OC(C)=O)cc4)cc3)sc2c1 : 6.51

pIC50 in this record for Cc1ccc2nc(-c3ccc(NC(=O)c4ccc(N)cc4)cc3)cn2c1 : 6.18

Sample COc1ccc2nc(-c3ccc(NC(=O)c4ccc(N(C)C)cc4)cc3)sc2c1 ; pIC50 observed: 6.77
